Test system: MDA-MB-231 breast
Assay: NCI-60 one-dose screen, 48 h (100 = growth as untreated, 0 = no growth, -100 = all killed)
Settings: 10 µM unless noted
Method: Cells are grown in 96 well plates and exposed to the test compound for 48 hours. Compounds are tested at a single concentration, which is 10^-5 M for most compounds. The reported endpoint is percent growth (GI% or GIPRCNT), where numbers from 0 - 100% represent growth inhibition, and numbers from -100% - 0 represent cell death. For example, a value of 40 represents 60% growth inhibition. A value of 0 means no net growth occurred over the course of the experiment. […]
About 83,000 compounds went through this panel and 20% of them were active in at least one assay; those are over-represented in the sample as a whole.
Items are presented alongside their recorded growth.
Hi! Could you send only the number? It should be in %, unit omitted.

* CCCCCCCCOC(=O)CC[C@@H](C)[C@H]1CC[C@H]2[C@@H]3[C@H](OC(=O)CCN)C[C@@H]4C[C@H](OC(=O)CCN)CC[C@]4(C)[C@H]3C[C@H](OC(=O)CCN)[C@]12C | 69.3

Task item: # lookup: growth of "O=C1/C(=C/c2ccccc2)CN(CCC(=O)N2C/C(=C\c3ccccc3)C(=O)/C(=C/c3ccccc3)C2)C/C1=C\c1ccccc1"
Reply: 75.2

Task item: So what does the record say about growth for "NCCN1CCN(c2nccc(-c3ccc4ccccc4c3)n2)CC1" ?
Reply: 23.8

Task item: For the compound shown here, "CC(C)(C)n1cc(-c2ccnc(NCCNS(=O)(=O)c3ccccc3)c2)c(-c2cccc(O)c2)n1" , give the reported growth.
Reply: 42.7

Task item: Consider the compound shown here: "COc1ccc(OCC(=O)Nc2ccc(-c3nc4ccccc4s3)cc2C)cc1" What is its recorded growth?
Reply: 85.7
